- Test system: SF-295
- PROCEDURE SUMMARY: NCI tumour cell line growth inhibition, 48 h
Active and inactive are the calls of the source. Cut-off read from the data, not from the text of the source: active = GI50 up to about 1.1 µM and inactive = higher.
Examples of compounds with documented GI50 follow.

>>> print(df.to_string())
                              smiles_string  reported_property  experimental_result
0         CC(=O)CCn1[nH]c(=O)c(Cl)c(Cl)c1=O               GI50  > 100 µM (inactive)
1  CN(C)c1ccc(O[Si](Oc2ccc(N(C)C)cc2)(Oc2ccc(N(C)C)cc2)Oc2ccc(N(C)C)cc2)cc1               GI50   86.3 µM (inactive)
2  C#CCC[C@@H]1O[C@@]1(C)CC/C=C(\C)CC/C=C/C=O               GI50   26.5 µM (inactive)

Enquiry: Indicate its recorded GI50; the compound in question is Oc1nc(-c2cccc(F)c2)nc2ccccc12
Return: 39.4 µM (inactive)

---

- Tested on: HCT-116
- PROCEDURE SUMMARY: NCI tumour cell line growth inhibition, 48 h
Active and inactive are the calls of the source. No stated cut-off is given here; in the data, active = GI50 up to about 1.1 µM and inactive = higher.
REPORTED PROPERTY: GI50

Solved cases below.
COMPOUND	GI50
CCN(CC)C(=S)SNCc1ccc(S(N)(=O)=O)cc1	13.2 µM (inactive)
CC1=C2C(O)C(C(C)C(=O)NCC(C)C)CCC2(C)C=CC1=O (stereo not given)	> 100 µM (inactive)
O=C(Cc1ccc(Cl)cc1)Nc1ccc2oc(-c3ccccc3)nc2c1	> 100 µM (inactive)
COc1c2ccoc2c(OC)c2oc(=O)ccc12 [ISOPIMPINELLIN]	> 100 µM (inactive)

// moving on: another record for GI50
Enquiry: Indicate its recorded GI50; the compound in question is O=C1N2Cc3c4ccc5c3CN3C(=O)N6Cc7c(ccc(c7CN1C6(c1ccccc1)C23c1ccccc1)OCCOCCNCCOCCO4)OCCOCCNCCOCCO5 (stereo not given)
Return: 30.8 µM (inactive)

---

- Tested on: HOP-62
- PROCEDURE SUMMARY: NCI tumour cell line growth inhibition, 48 h
Calls of active or inactive are those of the source. Cut-off read from the data, not from the text of the source: active = GI50 up to about 1.1 µM and inactive = higher. Square brackets hold non-standard residues; d marks the D form. Peptide text beside a SMILES is read from it. * marks the point of attachment. Tyr(3-Br) = N[C@@H](Cc1ccc(O)c(Br)c1)C(=O)O; Boc = CC(C)(C)OC(=O)*
Examples of compounds with documented GI50 follow.

COMPOUND	GI50
COC(=O)C1=C(O)C(C(=O)OC)[C@@]2(O)[C@@H](C(=O)OC)CC[C@@H]1[C@@H]2C(=O)OC (some centres not stated)	23.8 µM (inactive)
O=Cc1ccc(-c2cc(C=O)c(-c3cccs3)[nH]2)s1	21.3 µM (inactive)

Enquiry: Indicate its recorded GI50; the compound in question is Cc1cnc2c(c1)C(=O)N(c1ccc([N+](=O)[O-])cc1)S2(=O)=O
Return: > 100 µM (inactive)

Enquiry: Indicate its recorded GI50; the compound in question is Cn1c(=O)c2nc(CCS)[nH]c2n(C)c1=O
Return: 54.3 µM (inactive)

Enquiry: Indicate its recorded GI50; the compound in question is CCN(C(=N)C#N)c1ccccc1
Return: > 100 µM (inactive)

Enquiry: Indicate its recorded GI50; the compound in question is COc1cc(-c2ccc(/N=N/c3ccc4c(S(=O)(=O)O)cc(S(=O)(=O)O)c(N)c4c3O)c(OC)c2)ccc1/N=N/c1ccc2c(S(=O)(=O)O)cc(S(=O)(=O)O)c(N)c2c1O
Return: > 100 µM (inactive)

Enquiry: Indicate its recorded GI50; the compound in question is CC1=C(c2cc(C(=O)Nc3cccc(C(F)(F)F)c3)ncn2)Sc2ccccc2N1
Return: > 100 µM (inactive)

Enquiry: Indicate its recorded GI50; the compound in question is COC(=O)[C@H](Cc1ccc(O)c(Br)c1)NC(=O)[C@H](Cc1ccc(O)cc1)NC(=O)OC(C)(C)C (Boc-Tyr-[Tyr(3-Br)]-OMe)
Return: > 100 µM (inactive)

Enquiry: Indicate its recorded GI50; the compound in question is O=C(O)Cc1ccc(Oc2nc3ccccc3nc2C(=O)O)cc1
Return: > 100 µM (inactive)

Enquiry: Indicate its recorded GI50; the compound in question is O=C(Cc1ccc(Cl)cc1)Nc1ccc2oc(-c3ccccc3)nc2c1
Return: 35.6 µM (inactive)

Enquiry: Indicate its recorded GI50; the compound in question is [N-]=[N+]=NC1=C(c2ccccc2)C(=O)c2cccc3cccc1c23
Return: 15.2 µM (inactive)

Enquiry: Indicate its recorded GI50; the compound in question is COCCOC(=O)C1=C(O)c2ccccc2S(=O)(=O)N1C
Return: > 100 µM (inactive)

---

- System: COLO 205
- PROCEDURE SUMMARY: NCI tumour cell line growth inhibition, 48 h
Calls of active or inactive are those of the source. Cut-off read from the data, not from the text of the source: active = GI50 up to about 1.1 µM and inactive = higher.
Examples of molecules with documented GI50 follow.

MOLECULE	REPORTED PROPERTY	EXPERIMENTAL RESULT
COc1nc(N)c(C(=O)CCl)c(=O)n1C	GI50	10.6 µM (inactive)
CN(C)CCC1(C2=CCCC2)CC/C(=C\c2ccc3c(c2)OCO3)C1=O (configuration not stated)	GI50	18.7 µM (inactive)
CC(C)[C@H](NC(=O)[C@H](N)Cc1ccc(N(CCCl)CCCl)cc1)C(=O)O	GI50	> 100 µM (inactive)
N=C(N)SC1c2ccccc2-c2cc([N+](=O)[O-])ccc21 (configuration not stated)	GI50	2.94 µM (inactive)
[N-]=[N+]=NC1=C(c2ccccc2)C(=O)c2cccc3cccc1c23	GI50	> 100 µM (inactive)

Enquiry: Indicate its recorded GI50; the molecule in question is Cc1ccc(S(=O)(=O)C(C#N)c2nc3ccccc3nc2-n2ccnc2)cc1 (configuration not stated)
Return: > 100 µM (inactive)

Enquiry: Indicate its recorded GI50; the molecule in question is CC(=O)NC(CCCN(Cc1ccccc1)C(=O)N(CCCl)N=O)C(=O)NCc1ccccc1 (configuration not stated)
Return: > 64.7 µM (inactive)

Enquiry: Indicate its recorded GI50; the molecule in question is O=C(O)c1ccc(Nc2nc3ccccc3nc2C(=O)O)cc1
Return: > 100 µM (inactive)

Enquiry: Indicate its recorded GI50; the molecule in question is CCc1n[nH]c(=O)n1NC(=O)CCCC(=O)O
Return: > 100 µM (inactive)

Enquiry: Indicate its recorded GI50; the molecule in question is C=CC1(C)/C(=N\O)C(C)(CC)C(=O)N1O (configuration not stated)
Return: > 100 µM (inactive)

---

Examples of compounds with documented GI50 follow.
- Tested on: UO-31
- PROCEDURE SUMMARY: NCI tumour cell line growth inhibition, 48 h
The source made the active and inactive calls. No stated cut-off is given here; in the data, active = GI50 up to about 1.1 µM and inactive = higher.

Solved cases below.
>>> df
                                   compound  reported_property  experimental_result
0  Cn1cc(NC(=O)c2cc(NC(=O)CCCCCCCC(=O)Nc3cc(C(=O)Nc4cc(C(=O)NCCC(=N)N)n(C)c4)n(C)c3)cn2C)cc1C(=O)NCCC(=N)N               GI50  > 100 µM (inactive)
1  C#CCC[C@@H]1O[C@@]1(C)CC/C=C(\C)CC/C=C/C=O               GI50   35.8 µM (inactive)

Enquiry: Indicate its recorded GI50; the compound in question is Cc1cccc2c1C/C(=C1\CCc3c(C)cccc31)C2=O
Return: > 100 µM (inactive)

Enquiry: Indicate its recorded GI50; the compound in question is N#C/C(=C\c1ccc(Cl)cc1)c1nc(-c2cc3ccccc3oc2=O)cs1
Return: 80.7 µM (inactive)

Enquiry: Indicate its recorded GI50; the compound in question is CCOC(=O)C1=C(Nc2ccc(NC3=C(C(=O)OCC)C(=O)CS3)cc2)SCC1=O
Return: 17.5 µM (inactive)

Enquiry: Indicate its recorded GI50; the compound in question is CCC1(O)C(=O)OCc2c1cc1n(c2=O)Cc2cc3cc(OC)c(OC)cc3nc2-1 (stereo not given)
Return: 32 µM (inactive)

Enquiry: Indicate its recorded GI50; the compound in question is C=CCN1C(=O)/C(=C/c2ccc(Cl)cc2)N=C1SC/C=C/C
Return: 34.7 µM (inactive)

---

- Test system: NCI-H226
- PROCEDURE SUMMARY: NCI tumour cell line growth inhibition, 48 h
Activity calls are given as the source filed them. Rule as the data show it: active = GI50 up to about 1.1 µM and inactive = higher.
Examples of compounds with documented GI50 follow.

COMPOUND	GI50
CCN(CC)C(=S)SNCc1ccc(S(N)(=O)=O)cc1	> 38.9 µM (inactive)
CC1=C(C)SC(=C2Sc3c(n(C)c(=O)n(C)c3=O)S2)S1	20 µM (inactive)
O=C(Cn1cc(-c2ccccc2)nn1)NC1CCCC1	> 100 µM (inactive)

Enquiry: Indicate its recorded GI50; the compound in question is O=c1oc2ncccc2n1Cc1ccc([N+](=O)[O-])cc1
Return: > 100 µM (inactive)

Enquiry: Indicate its recorded GI50; the compound in question is CC(=O)NNc1nc(C)c(C(/C=C/c2ccccc2O)=N/NC(=O)c2ccncc2)s1
Return: > 100 µM (inactive)

Enquiry: Indicate its recorded GI50; the compound in question is Cc1cccc2c(N)c3cccc(C(=O)NCC[N+](C)(C)Cc4ccc([N+](=O)[O-])s4)c3nc12
Return: 6.68 µM (inactive)

Enquiry: Indicate its recorded GI50; the compound in question is Cn1c(=O)c2nc(CCS)[nH]c2n(C)c1=O
Return: > 100 µM (inactive)

Enquiry: Indicate its recorded GI50; the compound in question is O=C(O)Cc1ccc(Oc2nc3ccccc3nc2C(=O)O)cc1
Return: > 100 µM (inactive)

Enquiry: Indicate its recorded GI50; the compound in question is Cc1ccc(C)c(COCCOCn2cc(N3CCOCC3)c(=O)[nH]c2=O)c1
Return: > 100 µM (inactive)

Enquiry: Indicate its recorded GI50; the compound in question is Cc1cc(OCC(O)CO)ccc1-c1ccccc1 (stereo unspecified)
Return: > 100 µM (inactive)

Enquiry: Indicate its recorded GI50; the compound in question is CN1N=C(c2ccncc2)OC1c1ccccc1F (stereo unspecified)
Return: 73.1 µM (inactive)

Enquiry: Indicate its recorded GI50; the compound in question is Cc1cc(-c2ccc(Cl)cc2)c(C#N)c(=S)n1C1OC(CO)C(O)C(O)C1O (stereo unspecified)
Return: > 100 µM (inactive)

Enquiry: Indicate its recorded GI50; the compound in question is COC(=O)CCC(NC(=O)C(C)NC(=O)COC1C(O)C(OC(=O)CCNc2c3ccccc3nc3cccc([N+](=O)[O-])c23)OC(OCc2ccccc2)C1NC(C)=O)C(N)=O (stereo unspecified)
Return: > 10 µM (inactive)

Enquiry: Indicate its recorded GI50; the compound in question is N#C/C(=C\c1ccc(Cl)cc1)c1nc(-c2cc3ccccc3oc2=O)cs1
Return: 39 µM (inactive)

Enquiry: Indicate its recorded GI50; the compound in question is CC1CC[C@]2(C(=O)O)CCC3(C)C(=CC(=O)C4[C@@]5(C)CCC(=O)C(C)(C)C5CC[C@]43C)[C@@H]2[C@H]1C (stereo partly specified)
Return: 25.2 µM (inactive)

Enquiry: Indicate its recorded GI50; the compound in question is Cc1ccc(NC(=O)C(=O)C(C(=O)c2ccc3ccccc3c2)C2OC(=O)c3ccccc32)cc1C (stereo unspecified)
Return: 3.14 µM (inactive)
